# Test system: MDA-MB-435 melanoma
# Assay Notes: NCI-60 one-dose screen, 48 h (100 = growth as untreated, 0 = no growth, -100 = all killed)
# Conditions: 10 µM unless noted
# Experimental: Growth inhibition of the MDA-MB-435 human Melanoma tumor cell line is measured as a screen for anti-cancer activity. Cells are grown in 96 well plates and exposed to the test compound for 48 hours. Compounds are tested at a single concentration, which is 10^-5 M for most compounds. The reported endpoint is percent growth (GI% or GIPRCNT), where numbers from 0 - 100% represent growth inhibition, and numbers from -100% - 0 represent cell death. […]
The panel holds about 83,000 compounds, 20% with a hit somewhere; the sample as a whole holds those more often.
Give condition met when the value for growth is at least 30%. Give condition not met when it is less.

Cc1cc(C)cc(NC2=C(Cl)C(=O)c3nc(C)ccc3C2=O)c1 : condition not met
COc1ccc(/C=N/NC(=O)CSc2nc(-c3cnccn3)cc(-c3cccs3)c2C#N)cc1 : condition met
CC(O)c1cccc(/C(N)=N/C(N)=N/c2nc3ccccc3s2)c1 (centres undefined) : condition met
CN(C)c1ccc(/C=N/Nc2nc(N/N=C/c3ccc(N(C)C)cc3)nc(N3CCCCC3)n2)cc1 : condition met
CCN(CC)c1ccc(/C=N/NC(=O)c2ccc(S(N)(=O)=O)cc2)cc1 : condition met
COc1cccc(N2CCN(C3=C(Cl)C(=O)c4ncccc4C3=O)CC2)c1 : condition not met

Exercise: # bool: growth of CN1CCN(Cc2ccc(/C=N/Nc3ccnc4cc(Cl)ccc34)cc2)CC1 >= 30%
Solution: condition met

Exercise: # bool: growth of O=C(CSc1nnc(-c2cccs2)n1-c1ccccc1)Nc1ccccc1F >= 30%
Solution: condition not met

Exercise: # bool: growth of CN1CCN(Cc2ccc(NC(=O)c3cncc(C#Cc4cnc5ccc(OC6CCOCC6)nn45)c3)cc2C(F)(F)F)CC1 >= 30%
Solution: condition not met

Exercise: # bool: growth of N#Cc1c(-c2ccc(F)cc2)cc(-c2c[nH]c3ccccc23)nc1-c1c[nH]c2ccccc12 >= 30%
Solution: condition met

Exercise: # bool: growth of CS(=O)(=O)c1ccc(/C(=N/N=C(N)N)c2ccc(F)cc2)cc1 >= 30%
Solution: condition not met

Exercise: # bool: growth of Cc1[nH]c(C(=O)Nc2ccc(C(N)=O)cc2N2CCOC(C)C2)c(Cl)c1Cl (centres undefined) >= 30%
Solution: condition met

Exercise: # bool: growth of O=C(CSc1cc[n+](CCCCO)c2ccccc12)n1ccc2ccccc21 >= 30%
Solution: condition met

Exercise: # bool: growth of NNc1nnc2nc(Nc3ccccc3)nc(Nc3ccc(S(N)(=O)=O)cc3)n12 >= 30%
Solution: condition met

====

# System: HOP-62 NSCLC
# Assay Notes: NCI-60 one-dose screen, 48 h (100 = growth as untreated, 0 = no growth, -100 = all killed)
# Conditions: 10 µM unless noted
Compounds without any hit were thinned out: in the full panel of roughly 83,000, 20% have a hit.
Test Readout: growth (%)
Kindly answer with a numeric value in %, unit omitted.

Examples with answers:
O=c1c2cc(-c3ccc(F)cc3F)ccc2n(Nc2ccccc2)c(=O)n1-c1cccc(C(F)(F)F)c1 : 10.9
COCCOc1ccc2ncc(C#Cc3cncc(C(=O)Nc4ccc(CN5CCN(C)CC5)c(C(F)(F)F)c4)c3)n2n1 : 18.4
Clc1ccc2[nH]cc(-c3cncn3CCc3ccc4c(c3)OCO4)c2c1 : 85.5
CNCCN(C)c1ccc(Nc2cc(NC3CC3)n3ncc(C#N)c3n2)cc1NC(C)=O : 13.4
COc1ccc(CC(C)=C(c2ccc(OCCN3CCCC3)cc2)c2ccc(OCCN3CCCC3)cc2)cc1 : -66
Cc1ccc(C(=O)CSc2nnc(-c3ccc(-c4ccc(Cl)cc4)nc3C)o2)cc1 : 92.5

Exercise: Determine its reported growth: CN(C)c1ccc(-c2cc(-c3c[nH]c4ccccc34)nc(N)c2C#N)cc1
Solution: 33.3

Exercise: Determine its reported growth: O=C(Nc1ccc(N=Cc2c(O)[nH]c3ccccc23)cc1)Nc1ccc(S(=O)(=O)Nc2ncccn2)cc1
Solution: 99

Exercise: Determine its reported growth: CN1CCN(Cc2ccc(NC(=O)c3cncc(C#Cc4cnc5ccc(O[C@@H]6CCOC6)nn45)c3)cc2C(F)(F)F)CC1
Solution: -79.1

Exercise: Determine its reported growth: C/C(=N/N)c1nnn(-c2ccc(Br)cc2)c1C
Solution: 93.7

Exercise: Determine its reported growth: N#Cc1c(-c2cccs2)cc(-c2cnccn2)nc1SCC(=O)N/N=C/c1cccs1
Solution: 38.8

Exercise: Determine its reported growth: Cc1ccc(-c2cc3nc(C(Cl)Cl)nc(-c4ccc(S(=O)(=O)N(C)C)cc4)n3n2)cc1
Solution: 77.9
